Exercise: state measured TGI for each of the compounds provided.
# System: SK-OV-3 ovarian
# assay.method.text: NCI tumour cell line growth inhibition, 48 h
Quick note: give the figure in µM, leave out the unit.

// query What measured TGI goes with "Cc1cc2[nH]c(=O)c3c4ccccc4cn3c2cc1C" ?
// result 34.5

// query What measured TGI goes with "COc1ccc(S(=O)(=O)N/N=C/c2cc(I)cc([N+](=O)[O-])c2O)cc1OC" ?
// result 92.2

// query What measured TGI goes with "Nc1ccc(S(=O)(=O)Nc2ccc(Nc3c4ccccc4nc4ccccc34)cc2)cc1" ?
// result 0.501

// query What measured TGI goes with "COc1cccc(OCCCN)c1-c1cc(Nc2cnc(C#N)cn2)n[nH]1" ?
// result 7.02

// query What measured TGI goes with OC(c1cc(-c2ccc(Cl)cc2)nc2ccccc12)C1CCCCN1 (stereo not given) ?
// result 5.5
